Target: human equilibrative nucleoside transporter 1 (hENT1) (Homo sapiens, UniProt Q99808, N48Q)
Construct: gene SLC29A1; full-length, residues 1-456
Sequence (Q99808 1-456 N48Q): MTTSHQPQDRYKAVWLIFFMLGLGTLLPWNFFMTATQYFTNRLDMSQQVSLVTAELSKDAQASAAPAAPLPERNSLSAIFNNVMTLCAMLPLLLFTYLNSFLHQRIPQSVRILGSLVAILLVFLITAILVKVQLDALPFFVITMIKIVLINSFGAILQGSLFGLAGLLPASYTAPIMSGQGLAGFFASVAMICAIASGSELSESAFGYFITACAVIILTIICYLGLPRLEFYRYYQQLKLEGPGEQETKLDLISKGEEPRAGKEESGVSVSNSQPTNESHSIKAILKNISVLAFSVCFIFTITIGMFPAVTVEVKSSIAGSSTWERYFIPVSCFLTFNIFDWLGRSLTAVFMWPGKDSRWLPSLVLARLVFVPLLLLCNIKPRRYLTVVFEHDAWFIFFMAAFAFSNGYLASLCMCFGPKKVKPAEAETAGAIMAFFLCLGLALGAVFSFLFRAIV
Test: ITC
Type: binding
Conditions: read-out: Kd
pKd: −log10 of the molar value.

| given_smiles | measurement_target | pKd |
| --- | --- | --- |
| Nc1ncnc2c1ncn2[C@H]1C[C@H](O)[C@@H](CO)O1 | human equilibrative nucleoside transporter 1 (hENT1) (Homo sapiens, UniProt Q99808, N48Q) | 3.72 |

====

molecular target: human equilibrative nucleoside transporter 1 (hENT1) (Homo sapiens, UniProt Q99808, N48Q); construct: gene SLC29A1; full-length, residues 1-456; experiment: proteoliposome competition assay with 3H-adenosine, […] reduction at […]; type: biochemical; conditions: read-out: % reduction at 500 μmol/L

| given_smiles | inhibition at 500 µM |
| --- | --- |
| Cc1cn([C@H]2C[C@H](O)[C@@H](CO)O2)c(=O)[nH]c1=O | > 90% |
| O=c1ccn([C@H]2C[C@H](O)[C@@H](CO)O2)c(=O)[nH]1 | > 90% |
| Cc1cn([C@@H]2O[C@H](CO)[C@@H](O)[C@H]2O)c(=O)[nH]c1=O | > 90% |
| Nc1nc2c(ncn2[C@H]2C[C@H](O)[C@@H](CO)O2)c(=O)[nH]1 | > 90% |
| O=c1ccn([C@@H]2O[C@H](CO)[C@@H](O)[C@H]2O)c(=O)[nH]1 | > 90% |

====

biological target: human equilibrative nucleoside transporter 1 (hENT1) (Homo sapiens, UniProt Q99808, N48Q); construct: gene SLC29A1; full-length, residues 1-456; assay: ITC; assay type: binding
pKd: −log10 of the molar value.

| compound | pKd |
| --- | --- |
| Nc1ncnc2nc[nH]c12 [adenine] | 2.30 |
